# measured.on: T1, soluble dimeric FcγRIIB (extracellular domain fused to hinge-CH2-CH3 of human IgG2) (human, UniProt P31994 43-217)
# T1 construct: extracellular domain; also called FcRIIB; FcRIIB-Fc; not shown: human IgG2 hinge-CH2-CH3
# T1 sequence (looked up): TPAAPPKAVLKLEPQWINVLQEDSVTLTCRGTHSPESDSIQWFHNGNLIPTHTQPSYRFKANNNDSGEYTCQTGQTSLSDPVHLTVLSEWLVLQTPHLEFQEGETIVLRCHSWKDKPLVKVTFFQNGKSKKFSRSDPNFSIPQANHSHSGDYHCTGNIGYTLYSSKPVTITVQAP
# test.description: ELISA
Provide the recorded Binding to FcγRIIB (ELISA) for the entries that follow.

// known answers, use as guide
Supply recorded Binding to FcγRIIB (ELISA) for IgG1 Fc mutant R301H, K340E, D399E (antibody) heavy: ASTKGPSVFPLAPSSKSTSGGTAALGCLVKDYFPEPVTVSWNSGALTSGVHTFPAVLQSSGLYSLSSVVTVPSSSLGTQTYICNVNHKPSNTKVDKKVEPKSCDKTHTCPPCPAPELLGGPSVFLFPPKPKDTLMISRTPEVTCVVVDVSHEDPEVKFNWYVDGVEVHNAKTKPREEQYNSTYHVVSVLTVLHQDWLNGKEYKCKVSNKALPAPIEKTISKAEGQPREPQVYTLPPSRDELTKNQVSLTCLVKGFYPSDIAVEWESNGQPENNYKTTPPVLESDGSFFLYSKLTVDKSRWQQGNVFSCSVMHEALHNHYTQKSLSLSPGK here. 0.25 fold decrease

Supply recorded Binding to FcγRIIB (ELISA) for IgG1 Fc mutant P343S, P353L, S375I, S383N (antibody) heavy: ASTKGPSVFPLAPSSKSTSGGTAALGCLVKDYFPEPVTVSWNSGALTSGVHTFPAVLQSSGLYSLSSVVTVPSSSLGTQTYICNVNHKPSNTKVDKKVEPKSCDKTHTCPPCPAPELLGGPSVFLFPPKPKDTLMISRTPEVTCVVVDVSHEDPEVKFNWYVDGVEVHNAKTKPREEQYNSTYRVVSVLTVLHQDWLNGKEYKCKVSNKALPAPIEKTISKAKGQSREPQVYTLPLSRDELTKNQVSLTCLVKGFYPIDIAVEWENNGQPENNYKTTPPVLDSDGSFFLYSKLTVDKSRWQQGNVFSCSVMHEALHNHYTQKSLSLSPGK here. 6 fold increase

Supply recorded Binding to FcγRIIB (ELISA) for IgG1 Fc mutant K290E, V369A, T393A, P396L (antibody) heavy: ASTKGPSVFPLAPSSKSTSGGTAALGCLVKDYFPEPVTVSWNSGALTSGVHTFPAVLQSSGLYSLSSVVTVPSSSLGTQTYICNVNHKPSNTKVDKKVEPKSCDKTHTCPPCPAPELLGGPSVFLFPPKPKDTLMISRTPEVTCVVVDVSHEDPEVKFNWYVDGVEVHNAKTEPREEQYNSTYRVVSVLTVLHQDWLNGKEYKCKVSNKALPAPIEKTISKAKGQPREPQVYTLPPSRDELTKNQVSLTCLAKGFYPSDIAVEWESNGQPENNYKATPLVLDSDGSFFLYSKLTVDKSRWQQGNVFSCSVMHEALHNHYTQKSLSLSPGK here. 6.7 fold increase

Could I get Binding to FcγRIIB (ELISA) for every one of these entries?
1. IgG1 Fc mutant P244A, K326I, C367R, S375I, K447T (antibody) heavy: ASTKGPSVFPLAPSSKSTSGGTAALGCLVKDYFPEPVTVSWNSGALTSGVHTFPAVLQSSGLYSLSSVVTVPSSSLGTQTYICNVNHKPSNTKVDKKVEPKSCDKTHTCPPCPAPELLGGPSVFLFAPKPKDTLMISRTPEVTCVVVDVSHEDPEVKFNWYVDGVEVHNAKTKPREEQYNSTYRVVSVLTVLHQDWLNGKEYKCKVSNIALPAPIEKTISKAKGQPREPQVYTLPPSRDELTKNQVSLTRLVKGFYPIDIAVEWESNGQPENNYKTTPPVLDSDGSFFLYSKLTVDKSRWQQGNVFSCSVMHEALHNHYTQKSLSLSPGT
2. IgG1 Fc mutant F243L, V305I, A378D, F404S, P396L (antibody) heavy: ASTKGPSVFPLAPSSKSTSGGTAALGCLVKDYFPEPVTVSWNSGALTSGVHTFPAVLQSSGLYSLSSVVTVPSSSLGTQTYICNVNHKPSNTKVDKKVEPKSCDKTHTCPPCPAPELLGGPSVFLLPPKPKDTLMISRTPEVTCVVVDVSHEDPEVKFNWYVDGVEVHNAKTKPREEQYNSTYRVVSILTVLHQDWLNGKEYKCKVSNKALPAPIEKTISKAKGQPREPQVYTLPPSRDELTKNQVSLTCLVKGFYPSDIDVEWESNGQPENNYKTTPLVLDSDGSSFLYSKLTVDKSRWQQGNVFSCSVMHEALHNHYTQKSLSLSPGK
3. IgG1 Fc mutant K246I, Q362H, K370E (antibody) heavy: ASTKGPSVFPLAPSSKSTSGGTAALGCLVKDYFPEPVTVSWNSGALTSGVHTFPAVLQSSGLYSLSSVVTVPSSSLGTQTYICNVNHKPSNTKVDKKVEPKSCDKTHTCPPCPAPELLGGPSVFLFPPIPKDTLMISRTPEVTCVVVDVSHEDPEVKFNWYVDGVEVHNAKTKPREEQYNSTYRVVSVLTVLHQDWLNGKEYKCKVSNKALPAPIEKTISKAKGQPREPQVYTLPPSRDELTKNHVSLTCLVEGFYPSDIAVEWESNGQPENNYKTTPPVLDSDGSFFLYSKLTVDKSRWQQGNVFSCSVMHEALHNHYTQKSLSLSPGK

1. 3 fold increase
2. 5.4 fold increase
3. 0.5 fold decrease

// provenance: patent US20090098124A1
